# measured_on: stearoyl-CoA desaturase (SCD) (Rattus norvegicus, UniProt P07308)
# Construct: The microsomes were quickly thawed and added to assay buffer so that a concentration of 0.4 mg/ml was achieved; from tissue
# Sequence (P07308 whole entry): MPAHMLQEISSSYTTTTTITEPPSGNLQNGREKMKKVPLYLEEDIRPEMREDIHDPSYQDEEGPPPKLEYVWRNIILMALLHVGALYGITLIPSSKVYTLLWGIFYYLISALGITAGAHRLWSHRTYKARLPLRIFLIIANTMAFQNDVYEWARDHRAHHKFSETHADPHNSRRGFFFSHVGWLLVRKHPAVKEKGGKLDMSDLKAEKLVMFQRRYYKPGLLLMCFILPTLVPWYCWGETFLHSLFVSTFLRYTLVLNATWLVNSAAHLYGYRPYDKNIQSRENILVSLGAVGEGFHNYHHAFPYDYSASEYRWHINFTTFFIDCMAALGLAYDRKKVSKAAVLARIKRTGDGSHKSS
# assay_notes: SCD assay with rat liver microsomes ([3H]stearoyl CoA, adapted from Talamo and Bloch)
# Assay type: biochemical
# condition_info: Table 2 (Example 21, procedures of Example 20); rat liver microsomes, [3H]stearoyl CoA substrate
measure: pIC50
Lab note — pIC50 values are minus log10 of concentrations in M.

Answered cases to consult:
>  <compound>
O=C(CO)Nc1ccc2ncn(CCOc3cccc(Cl)c3)c(=O)c2c1

>  <measure>
pIC50

>  <value>
5.82

$$$$
>  <compound>
CC(=O)OCC(=O)Nc1ccc2ncn(Cc3ccc(C)c(C)c3)c(=O)c2c1

>  <measure>
pIC50

>  <value>
6.33

$$$$
>  <compound>
CC(=O)OCC(=O)Nc1ccc2ncn(CCCOc3ccccc3F)c(=O)c2c1

>  <measure>
pIC50

>  <value>
5.01

$$$$
>  <compound>
COc1cccc(Cn2cnc3ccc(NC(=O)OCc4ccccc4)cc3c2=O)c1

>  <measure>
pIC50

>  <value>
5.85

$$$$
>  <compound>
CC(c1ccc(Cl)c(Cl)c1)n1cnc2cc(NC(=O)OCc3ccccc3)ccc2c1=O (stereo not shown)

>  <measure>
pIC50

>  <value>
6.54

$$$$
>  <compound>
O=C(CO)Nc1ccc2ncn(Cc3ccc(Cl)cc3)c(=O)c2c1

>  <measure>
pIC50

>  <value>
5.92

$$$$

The reported pIC50 value, stearoyl-CoA desaturase (SCD) (Rattus norvegicus, UniProt P07308), for CC(=O)OCC(=O)Nc1ccc2ncn(Cc3ccccc3C(F)(F)F)c(=O)c2c1 reads 5.82

The reported pIC50 value, stearoyl-CoA desaturase (SCD) (Rattus norvegicus, UniProt P07308), for O=C(Nc1ccc2ncn(C/C=C/COc3cc(Cl)ccc3Cl)c(=O)c2c1)OCc1ccccc1 reads 6.42

The reported pIC50 value, stearoyl-CoA desaturase (SCD) (Rattus norvegicus, UniProt P07308), for O=C(C[C@@H](O)c1ccccc1)Nc1ccc2ncn(Cc3ccc(Cl)c(Cl)c3)c(=O)c2c1 reads 5.77

The reported pIC50 value, stearoyl-CoA desaturase (SCD) (Rattus norvegicus, UniProt P07308), for O=C(CO)Nc1ccc2ncn(CCNC(=O)c3ccccc3C(F)(F)F)c(=O)c2c1 reads 5.28
